subject-of-test: M17 leucyl aminopeptidase (Plasmodium falciparum (isolate 3D7))
Sequence (Q8IL11 whole entry): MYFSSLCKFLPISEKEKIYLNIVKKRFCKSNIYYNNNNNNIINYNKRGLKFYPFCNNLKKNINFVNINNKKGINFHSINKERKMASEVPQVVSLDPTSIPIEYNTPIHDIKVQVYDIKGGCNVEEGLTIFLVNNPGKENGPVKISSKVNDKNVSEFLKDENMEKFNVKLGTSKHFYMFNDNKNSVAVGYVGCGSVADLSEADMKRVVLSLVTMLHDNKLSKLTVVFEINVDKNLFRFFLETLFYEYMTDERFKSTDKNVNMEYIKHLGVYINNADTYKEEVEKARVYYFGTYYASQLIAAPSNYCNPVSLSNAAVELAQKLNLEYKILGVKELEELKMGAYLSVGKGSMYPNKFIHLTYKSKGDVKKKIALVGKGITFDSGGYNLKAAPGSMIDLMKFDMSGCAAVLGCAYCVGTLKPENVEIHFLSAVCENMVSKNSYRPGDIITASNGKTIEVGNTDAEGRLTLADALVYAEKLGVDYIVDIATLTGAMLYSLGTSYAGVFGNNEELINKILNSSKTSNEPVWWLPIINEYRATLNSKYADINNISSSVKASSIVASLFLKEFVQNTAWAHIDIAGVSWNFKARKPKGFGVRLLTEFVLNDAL
experiment: P. falciparum M17LAP inhibitors, primary screen, biochemical, fluorogenic H-Leu-NHMec substrate, 1536-well (AID 1619)
pIC50: −log10 of the molar value.
Record TRUE whenever pIC50 is at 5 or higher; record FALSE when lower.

INSERT INTO assay_data (molecule, subject_of_test, class_label) VALUES
  ('N#CC1C(=N)Oc2[nH]nc(-c3ccccc3)c2C1c1cccnc1 (stereo not given) [MLS000030179]', 'M17 leucyl aminopeptidase (Plasmodium falciparum (isolate 3D7))', 'FALSE'),
  ('C=CCOc1c(OC)cc(CN=Nc2cccc(C(=O)O)c2)c(Br)c1Br', 'M17 leucyl aminopeptidase (Plasmodium falciparum (isolate 3D7))', 'TRUE'),
  ('CC(CC1CC(C)(C)OC1=O)N=Nc1nc(-c2ccccc2)cs1 (stereo not given) [SMR000220752]', 'M17 leucyl aminopeptidase (Plasmodium falciparum (isolate 3D7))', 'FALSE'),
  ('COc1cc(CN=Nc2ccc(Cl)c(C(=O)O)c2)ccc1OC(=O)c1ccco1', 'M17 leucyl aminopeptidase (Plasmodium falciparum (isolate 3D7))', 'FALSE'),
  ('O=C1c2ccccc2C(=O)C1C1=NC(C(=O)O)c2c1c(O)n(-c1ccc(Cl)cc1)c2O (stereo not given) [MLS000331181]', 'M17 leucyl aminopeptidase (Plasmodium falciparum (isolate 3D7))', 'FALSE'),
  ('Cc1ccc(SCc2cc(=O)[nH][nH]2)cc1', 'M17 leucyl aminopeptidase (Plasmodium falciparum (isolate 3D7))', 'TRUE'),
  ('O=C(O)c1cc(N=NCc2ccc(OCc3ccccc3)cc2)ccc1Cl [SMR000364895]', 'M17 leucyl aminopeptidase (Plasmodium falciparum (isolate 3D7))', 'FALSE'),
  ('O=C(O)c1ccc(CN=Nc2ccc(F)cc2F)cc1 [SMR000364892]', 'M17 leucyl aminopeptidase (Plasmodium falciparum (isolate 3D7))', 'FALSE');
